tested on: Isocitrate dehydrogenase [NADP] cytoplasmic (Homo sapiens), O75874 [R132C]; test: Inhibition of recombinant human IDH1 R132C mutant extracted from Escherichia coli BL21 (DE3) cells using alpha-ketoglutarate as substrate at 0.2 uM incubated for 60 mins in presence of NADPH by absorbance based assay relative to control
Sequence (O75874 whole entry R132C): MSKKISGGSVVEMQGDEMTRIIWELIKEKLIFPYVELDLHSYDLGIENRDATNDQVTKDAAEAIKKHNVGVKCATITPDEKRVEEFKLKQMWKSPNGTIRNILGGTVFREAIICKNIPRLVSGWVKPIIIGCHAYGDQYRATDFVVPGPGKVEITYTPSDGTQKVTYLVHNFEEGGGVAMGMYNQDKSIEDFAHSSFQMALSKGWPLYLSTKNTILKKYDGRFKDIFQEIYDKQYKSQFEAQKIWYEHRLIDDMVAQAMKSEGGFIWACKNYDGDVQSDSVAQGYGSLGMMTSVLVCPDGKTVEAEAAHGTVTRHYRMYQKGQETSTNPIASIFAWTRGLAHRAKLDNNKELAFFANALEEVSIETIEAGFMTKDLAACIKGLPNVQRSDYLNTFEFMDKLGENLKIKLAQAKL
Calls of active or inactive are those of the source. No cut-off for these calls is given here.
quantity_name: inhibition

The examples below pair each entry with its known result.
COc1cc(O)c(-c2cc(-c3ccc(O)cc3)nc(N3CCNCC3)n2)cc1CC=C(C)C = 65.9%
COc1cc(OC)c(C(=O)/C=C/c2ccc(O)cc2)cc1CC=C(C)C = inactive
COc1cc(O)c(-c2cc(-c3ccc(O)cc3)nc(-c3ccncc3Cl)n2)cc1CC=C(C)C = 14.9%
COc1cc(O)c(-c2cc(-c3ccc(O)cc3)nc(-c3cccnc3)n2)cc1CC=C(C)C = 20.3%
COc1cc(O)c(-c2cc(-c3ccc(O)cc3)nc(C)n2)cc1CC=C(C)C = 12.5%
COc1cc(O)c(-c2cc(-c3ccc(O)cc3)nc(N3CCCCC3)n2)cc1CC=C(C)C = 11.8%

Exercise: Answer with the recorded inhibition of `COc1cc(O)c(C(=O)/C=C/c2ccc(O)cc2)cc1CC=C(C)C` only.
Solution: inactive

Exercise: Specify reported inhibition for the compound shown: `COc1cc(O)c(-c2cc(-c3ccc(O)cc3)nc(-c3nn(Cc4ccccc4F)c4ncccc34)n2)cc1CC=C(C)C`
Solution: 40.1%

Exercise: Given the compound `COc1cc(O)c(-c2cc(-c3ccc(O)cc3)nc(N3CCN(C(C)=O)CC3)n2)cc1CC=C(C)C` , write its reported inhibition.
Solution: 12.8%

Exercise: Return inhibition for the following compound: `COc1cc(O)c(-c2cc(-c3ccc(O)cc3)nc(-c3ncccn3)n2)cc1CC=C(C)C`
Solution: 14.6%

Exercise: Please report inhibition for the following compound: `COc1cc(O)c(-c2cc(-c3ccc(O)cc3)[nH]n2)cc1CC=C(C)C`
Solution: 14.2%

Exercise: Hello, please tell me recorded inhibition for this one: `COc1cc(O)c(-c2cc(-c3ccc(O)cc3)nc(N3CCN(c4ncccn4)CC3)n2)cc1CC=C(C)C`
Solution: 10.4%

Exercise: Complete the entry with inhibition for `COc1cc(O)c(-c2cc(-c3ccc(O)cc3)nc(N)n2)cc1CC=C(C)C`
Solution: 8.9%

Exercise: Fill in reported inhibition for this entry: `COCOc1ccc(/C=C/C(=O)c2cc(CC=C(C)C)c(OC)cc2O)cc1`
Solution: inactive

---

system: Isocitrate dehydrogenase [NADP] cytoplasmic (Homo sapiens), O75874 [R132H]; assay: Inhibition of recombinant human IDH1 R132H mutant extracted from Escherichia coli BL21 (DE3) cells using alpha-ketoglutarate as substrate at 0.2 uM incubated for 60 mins in presence of NADPH by absorbance based assay relative to control
Sequence (O75874 whole entry R132H): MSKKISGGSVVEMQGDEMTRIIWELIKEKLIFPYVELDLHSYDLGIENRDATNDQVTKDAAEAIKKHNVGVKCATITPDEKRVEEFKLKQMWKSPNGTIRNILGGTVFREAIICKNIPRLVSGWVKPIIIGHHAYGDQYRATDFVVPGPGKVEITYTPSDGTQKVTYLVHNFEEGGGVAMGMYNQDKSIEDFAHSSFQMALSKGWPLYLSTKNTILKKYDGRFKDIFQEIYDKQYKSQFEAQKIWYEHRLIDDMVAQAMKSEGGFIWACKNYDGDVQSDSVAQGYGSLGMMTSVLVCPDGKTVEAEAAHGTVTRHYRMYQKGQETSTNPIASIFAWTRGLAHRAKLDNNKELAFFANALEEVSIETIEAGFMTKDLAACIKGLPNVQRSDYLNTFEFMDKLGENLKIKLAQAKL
inhibition by entry:

Exercise: Report inhibition, nothing else, for this compound: `COc1cc(O)c(-c2cc(-c3ccc(O)cc3)nc(N3CCCCC3)n2)cc1CC=C(C)C`
Solution: 9.4%

---

Reported inhibition by item:
test system: Isocitrate dehydrogenase [NADP] cytoplasmic (Homo sapiens), O75874 [R132C]; experiment: Inhibition of recombinant human IDH1 R132C mutant extracted from Escherichia coli BL21 (DE3) cells using alpha-ketoglutarate as substrate at 0.2 uM incubated for 60 mins in presence of NADPH by absorbance based assay relative to control

These recorded examples may help you get a feel for the data.
COc1cc(O)c(-c2cc(-c3ccc(O)cc3)nc(-c3ccccc3)n2)cc1CC=C(C)C = 37.7%
COc1cc(O)c(-c2cc(-c3ccc(O)cc3)nc(C(C)(C)C)n2)cc1CC=C(C)C = 14.7%

Kindly consider the entry below.
Exercise: Input `COc1cc(OC)c(-c2cc(-c3ccc(O)cc3)nc(-c3ncccn3)n2)cc1CC=C(C)C` , output reported inhibition.
Solution: 11%
